test system: Staphylococcus aureus; experiment: Antibacterial activity against Staphylococcus aureus NCIM 2079 after 18 hrs by disc diffusion method; assay type: functional
Residues, ends and D or L forms follow the SMILES beside them. *: point of attachment. X1 = Cc1cc2nc(-c3ccc(O)c(C(=O)*)c3)[nH]c2cc1C
observed-property: inhibition zone (IZ) (mm)
Give just the number in mm; leave the unit off.

Please review the entries below; each comes with its answer.
Cc1cc2nc(-c3ccc(C(=O)N[C@@H](Cc4cnc[nH]4)C(=O)N[C@@H](Cc4ccc(O)cc4)C(=O)O)cc3)[nH]c2cc1C = 11
C[C@H](NC(=O)[C@@H]1CCCN1C(=O)c1cc(-c2nc3ccc([N+](=O)[O-])cc3[nH]2)ccc1O)C(=O)O = 9
COC(=O)[C@H](Cc1ccccc1)NC(=O)c1cc(-c2nc3cc(C)c(C)cc3[nH]2)ccc1O = 10
COC(=O)[C@@H]1CCCN1C(=O)[C@@H]1CCCN1C(=O)[C@@H]1CCCN1C(=O)c1cc(-c2nc3ccc([N+](=O)[O-])cc3[nH]2)ccc1O = 11
COC(=O)[C@H](Cc1ccccc1)NC(=O)[C@@H]1CCCN1C(=O)[C@@H]1CCCN1C(=O)c1ccc(-c2nc3cc(C)c(C)cc3[nH]2)cc1 = 8

Recorded inhibition zone (IZ) for COC(=O)[C@H](Cc1cnc[nH]1)NC(=O)CNC(=O)[C@H](Cc1c[nH]c2ccccc12)NC(=O)CNC(=O)c1cc(-c2nc3cc(C)c(C)cc3[nH]2)ccc1O (X1-GWGH-OMe) on Staphylococcus aureus was 9

Recorded inhibition zone (IZ) for `COC(=O)[C@@H]1CCCN1C(=O)c1ccc(-c2nc3cc(C)c(C)cc3[nH]2)cc1` on Staphylococcus aureus was 11

Recorded inhibition zone (IZ) for `COC(=O)[C@H](Cc1cnc[nH]1)NC(=O)[C@H](Cc1cnc[nH]1)NC(=O)c1cc(-c2nc3cc(C)c(C)cc3[nH]2)ccc1O` on Staphylococcus aureus was 11

Recorded inhibition zone (IZ) for `Cc1cc2nc(-c3ccc(C(=O)N[C@@H](CC(C)C)C(=O)NCC(=O)O)cc3)[nH]c2cc1C` on Staphylococcus aureus was 10

Recorded inhibition zone (IZ) for `COC(=O)[C@H](C)NC(=O)[C@@H]1CCCN1C(=O)c1cc(-c2nc3ccc([N+](=O)[O-])cc3[nH]2)ccc1O` on Staphylococcus aureus was 9

Recorded inhibition zone (IZ) for Cc1cc2nc(-c3ccc(O)c(C(=O)NCC(=O)N[C@@H](Cc4c[nH]c5ccccc45)C(=O)NCC(=O)N[C@@H](Cc4cnc[nH]4)C(=O)O)c3)[nH]c2cc1C (X1-GWGH-OH) on Staphylococcus aureus was 10

Recorded inhibition zone (IZ) for `Cc1cc2nc(-c3c(I)cc(C(=O)N[C@@H](Cc4cnc[nH]4)C(=O)N4CCC[C@H]4C(=O)O)cc3I)[nH]c2cc1C` on Staphylococcus aureus was 13

Recorded inhibition zone (IZ) for `COC(=O)[C@H](CCCNC(=N)N[N+](=O)[O-])NC(=O)c1cc(-c2nc3ccc([N+](=O)[O-])cc3[nH]2)ccc1O` on Staphylococcus aureus was 10

Recorded inhibition zone (IZ) for `COC(=O)CNC(=O)[C@H](Cc1ccc(O)cc1)NC(=O)[C@H](C)NC(=O)c1cc(I)c(-c2nc3cc(C)c(C)cc3[nH]2)c(I)c1` on Staphylococcus aureus was 12

Recorded inhibition zone (IZ) for `COC(=O)[C@H](C)NC(=O)[C@H](CCCNC(=N)N[N+](=O)[O-])NC(=O)c1cc(-c2nc3cc(C)c(C)cc3[nH]2)ccc1O` on Staphylococcus aureus was 11

Recorded inhibition zone (IZ) for `COC(=O)[C@@H]1CCCN1C(=O)[C@H](Cc1cnc[nH]1)NC(=O)c1cc(I)c(-c2nc3cc(C)c(C)cc3[nH]2)c(I)c1` on Staphylococcus aureus was 11
